A collection of molecules and their measured GI50 at 48 h
test: Cytotoxicity against human A549 cells after 48 hrs by Celltiter-glo assay; assay type: cell-based

The examples below pair each entry with its known result.
[
  {
    "molecule": "Nc1nc2ccc(C(=O)NCc3ccccc3N)cc2s1",
    "GI50 at 48 h": "> 25 µM"
  },
  {
    "molecule": "CS(=O)(=O)c1ccc2nc(N)sc2c1",
    "GI50 at 48 h": "> 25 µM"
  },
  {
    "molecule": "N#Cc1ccc(CSc2ccc3nc(N)sc3c2)cc1",
    "GI50 at 48 h": "> 25 µM"
  },
  {
    "molecule": "Nc1nc2ccc(SC(F)(F)F)cc2s1",
    "GI50 at 48 h": "< 10 µM"
  },
  {
    "molecule": "Nc1nc2ccc(C(=O)NCc3ccc(C(=O)NCc4ccccc4)cc3)cc2s1",
    "GI50 at 48 h": "> 25 µM"
  },
  {
    "molecule": "Nc1nc2ccc(C(=O)N(CCO)Cc3ccccc3)cc2s1",
    "GI50 at 48 h": "> 25 µM"
  },
  {
    "molecule": "Nc1nc2ccc(S(=O)(=O)Cc3ccc(Cl)c(Cl)c3)cc2s1",
    "GI50 at 48 h": "10 to 25 µM"
  },
  {
    "molecule": "COc1ccc2nc(N)sc2c1",
    "GI50 at 48 h": "< 10 µM"
  },
  {
    "molecule": "Nc1nc2c(O)cc(C(=O)NCc3ccccc3)cc2s1",
    "GI50 at 48 h": "> 25 µM"
  },
  {
    "molecule": "Nc1nc2ccc(C(=O)NCc3ccccc3)cc2s1",
    "GI50 at 48 h": "> 25 µM"
  }
]

## Input Please give the measured GI50 at 48 h for this molecule: "Nc1nc2c(O)cc(C(=O)NCc3ccc(Cl)c(Cl)c3)cc2s1"
## Output > 25 µM

## Input Please give the measured GI50 at 48 h for this molecule: "COC(=O)c1ccc(CS(=O)(=O)c2ccc3nc(N)sc3c2)cc1"
## Output > 25 µM

## Input Please give the measured GI50 at 48 h for this molecule: "CSc1ccc2nc(N)sc2c1"
## Output > 25 µM

## Input Please give the measured GI50 at 48 h for this molecule: "Nc1nc2ccc(C(=O)NC(c3ccccc3)c3ccccc3)cc2s1"
## Output > 25 µM

## Input Please give the measured GI50 at 48 h for this molecule: "COC(=O)c1ccc(COc2ccc3nc(N)sc3c2)cc1"
## Output > 25 µM

## Input Please give the measured GI50 at 48 h for this molecule: Nc1nc2ccc(OC(F)(F)F)cc2s1 [RILUZOLE]
## Output 10 to 25 µM

## Input Please give the measured GI50 at 48 h for this molecule: "COC(=O)C1CCN(C(=O)c2ccc3nc(N)sc3c2)CC1"
## Output > 25 µM

## Input Please give the measured GI50 at 48 h for this molecule: "Nc1nc2c(C(=O)N(Cc3ccccc3)Cc3ccc(Cl)c(Cl)c3)cc(O)c(O)c2s1"
## Output > 25 µM

## Input Please give the measured GI50 at 48 h for this molecule: "COC(=O)c1ccc(CNC(=O)c2ccc3nc(N)sc3c2)cc1"
## Output > 25 µM

## Input Please give the measured GI50 at 48 h for this molecule: "COC(=O)c1ccc(CSc2ccc3nc(N)sc3c2)cc1"
## Output > 25 µM

## Input Please give the measured GI50 at 48 h for this molecule: N=C(N)c1ccc(OCCCCCOc2ccc(C(=N)N)cc2)cc1 [PENTAMIDINE]
## Output > 25 µM

* * *

experiment: Thermodynamic solubility of the compound in phosphate buffered saline after 24 hrs by spectrophotometric method; format: physicochemical; details: read-out: Therm_solubility
readout.type: solubility thermodynamic at 24 h (µg/mL)
Respond numerically; units are µg/mL and should not be typed.

## Input Please give the measured solubility thermodynamic at 24 h for this molecule: "Nc1nc2ccc(C(=O)NCc3ccccc3)cc2s1"
## Output 10.9

* * *

// endpoint IC50 / system UniProt P11712
Sequence (P11712 whole entry): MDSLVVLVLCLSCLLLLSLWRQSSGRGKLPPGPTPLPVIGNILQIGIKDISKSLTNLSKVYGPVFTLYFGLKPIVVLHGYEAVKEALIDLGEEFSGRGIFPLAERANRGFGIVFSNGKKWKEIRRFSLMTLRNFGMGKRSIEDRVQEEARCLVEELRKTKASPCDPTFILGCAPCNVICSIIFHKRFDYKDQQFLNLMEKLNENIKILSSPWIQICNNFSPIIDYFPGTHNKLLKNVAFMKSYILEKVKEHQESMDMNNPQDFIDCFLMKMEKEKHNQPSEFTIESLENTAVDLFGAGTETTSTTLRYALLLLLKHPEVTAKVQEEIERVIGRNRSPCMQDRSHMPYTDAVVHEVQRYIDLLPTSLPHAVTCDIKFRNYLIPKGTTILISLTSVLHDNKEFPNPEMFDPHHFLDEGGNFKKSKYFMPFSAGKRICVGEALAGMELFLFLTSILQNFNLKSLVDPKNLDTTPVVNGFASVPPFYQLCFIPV

The examples below pair each entry with its known result.
[
  {
    "compound.structure": "Nc1nc2ccc(C(=O)NC(c3ccccc3)c3ccccc3)cc2s1",
    "readout.type": "IC50",
    "reading": "< 10 µM"
  },
  {
    "compound.structure": "COC(=O)C1CCN(C(=O)c2ccc(CSc3ccc4nc(N)sc4c3)cc2)CC1",
    "readout.type": "IC50",
    "reading": "> 25 µM"
  },
  {
    "compound.structure": "Nc1nc2ccc(OCc3ccc(Cl)c(Cl)c3)cc2s1",
    "readout.type": "IC50",
    "reading": "> 25 µM"
  },
  {
    "compound.structure": "Nc1nc2c(C(=O)NCc3ccccc3)cc(O)c(O)c2s1",
    "readout.type": "IC50",
    "reading": "> 25 µM"
  }
]

## Input State its IC50 on UniProt P11712: "N#Cc1ccc(CS(=O)(=O)c2ccc3nc(N)sc3c2)cc1"
## Output > 25 µM

## Input State its IC50 on UniProt P11712: "Nc1nc2c(C(=O)N(Cc3ccccc3)Cc3ccc(Cl)c(Cl)c3)cc(O)c(O)c2s1"
## Output < 10 µM

## Input State its IC50 on UniProt P11712: "COc1ccc(CN(Cc2ccc(Cl)c(Cl)c2)C(=O)c2ccc3nc(N)sc3c2)cc1OC"
## Output < 10 µM

## Input State its IC50 on UniProt P11712: "Nc1nc2ccc(C(=O)N(Cc3ccccc3)Cc3ccc(Cl)c(Cl)c3)cc2s1"
## Output < 10 µM

## Input State its IC50 on UniProt P11712: "Nc1nc2ccc(SCc3ccc(Cl)c(Cl)c3)cc2s1"
## Output > 25 µM

## Input State its IC50 on UniProt P11712: "N#Cc1ccc(CSc2ccc3nc(N)sc3c2)cc1"
## Output 10 to 25 µM

## Input State its IC50 on UniProt P11712: "COc1cc(CNC(=O)c2ccc3nc(N)sc3c2)cc(OC)c1OC"
## Output > 25 µM

* * *

experiment: AUC in BALB/c mouse at 20 mg/kg, po by LC-MS analysis; assay type: ADME, organism-based; conditions: in vivo
readout.type: AUC (µg·h/mL)
Respond numerically; units are µg·h/mL and should not be typed.

## Input Please give the measured AUC for this molecule: "Nc1nc2ccc(C(=O)NCc3ccccc3)cc2s1"
## Output 4.69

* * *

experiment: Selectivity index ratio of GI50 for human U2OS cells to EC50 for growth inhibition of Trypanosoma brucei bloodstream forms; type: toxicity; details: read-out: Ratio GI50/EC50
readout.type: selectivity ratio

## Input Please give the measured selectivity ratio for this compound: "Nc1nc2ccc(C(=O)NCc3ccccc3)cc2s1"
## Output > 10

* * *

experiment: Mitochondrial toxicity in human 786-O cells measured after 6 hrs by MitoTracker Red chloromethyl-X-rosamine based assay; assay type: cell-based, 786-0
readout.type: IC50 at 6 h

[
  {
    "compound.structure": "Nc1nc2ccc(S(=O)(=O)Cc3ccc(Cl)c(Cl)c3)cc2s1",
    "IC50 at 6 h": "> 25 µM"
  },
  {
    "compound.structure": "COc1ccc(CN(Cc2ccc(Cl)c(Cl)c2)C(=O)c2ccc3nc(N)sc3c2)cc1OC",
    "IC50 at 6 h": "10 to 25 µM"
  },
  {
    "compound.structure": "Nc1nc2ccc(C(=O)NC(c3ccccc3)c3ccccc3)cc2s1",
    "IC50 at 6 h": "> 25 µM"
  },
  {
    "compound.structure": "COC(=O)C1CCN(C(=O)c2ccc(CS(=O)(=O)c3ccc4nc(N)sc4c3)cc2)CC1",
    "IC50 at 6 h": "> 25 µM"
  },
  {
    "compound.structure": "Nc1nc2ccc(C(=O)NCc3ccccc3N)cc2s1",
    "IC50 at 6 h": "> 25 µM"
  }
]

Okay, next one:
## Input Please give the measured IC50 at 6 h for this compound: "N=C(N)c1ccc(OCCCCCOc2ccc(C(=N)N)cc2)cc1"
## Output > 25 µM

* * *

assay: Cytotoxicity against human THP1 cells after 72 hrs by MTT assay; format: cell-based, THP-1; details: read-out: NOAEL
A collection of compounds and their measured MNTC at 72 h

[
  {
    "compound.structure": "N=C(N)c1ccc(OCCCCCOc2ccc(C(=N)N)cc2)cc1",
    "reading": "> 25 µM"
  },
  {
    "compound.structure": "Nc1nc2ccc(S(=O)(=O)Cc3ccccc3)cc2s1",
    "reading": "> 25 µM"
  },
  {
    "compound.structure": "Nc1nc2ccc(C(=O)NCCc3cccs3)cc2s1",
    "reading": "> 25 µM"
  },
  {
    "compound.structure": "Nc1nc2ccc(C(=O)NCc3ccc(Cl)c(Cl)c3)cc2s1",
    "reading": "> 25 µM"
  },
  {
    "compound.structure": "COC(=O)c1ccc(CSc2ccc3nc(N)sc3c2)cc1",
    "reading": "10 to 25 µM"
  },
  {
    "compound.structure": "Nc1nc2ccc(SCc3ccccc3)cc2s1",
    "reading": "10 to 25 µM"
  }
]

## Input Please give the measured MNTC at 72 h for this compound: "N#Cc1ccc(CSc2ccc3nc(N)sc3c2)cc1"
## Output > 25 µM

## Input Please give the measured MNTC at 72 h for this compound: "Nc1nc2ccc(S(=O)(=O)Cc3ccc(Cl)c(Cl)c3)cc2s1"
## Output 10 to 25 µM
